test system: DIV30; assay: qHTS profiling for inhibitors of Plasmodium falciparum proliferation (AID 504749); note: nearly all actives have a fitted effect of over 60% in size; details: P. falciparum in erythrocytes, SYBR Green DNA, 72 h; series mostly up to 12.8 µM
Inconclusive results are not listed. Active and inactive are the calls of the source. Calls come from the whole dose curve; as a rule, active = well fitted inhibition curve with a large enough effect; inconclusive = small, poorly fitted or top-dose-only effect; inactive = flat fitted curve, though single readings scatter.
Possible outcomes: YES for active, NO for inactive

{"compound": "O=C1OC(CO)C(O)C(O)C1O (stereo not given)", "target under test": "DIV30", "discrete label": "NO"}
{"compound": "CC1C2CCC3C4CC=C5CC(N(C)C)CC[C@@]5(C)C4CC[C@@]32CN1C (stereo not given in full)", "target under test": "DIV30", "discrete label": "NO"}
{"compound": "C[C@H]1CS(=O)(=O)CCN1/N=C\\c1ccc([N+](=O)[O-])o1", "target under test": "DIV30", "discrete label": "NO"}
{"compound": "C=C1c2c(Cl)ccc(O)c2C(O)=C2C(=O)[C@@]3(O)C(O)=C(C(N)=O)C(=O)[C@@H](N(C)C)[C@@H]3[C@@H](O)[C@H]12", "target under test": "DIV30", "discrete label": "NO"}
{"compound": "CC(=O)OCC(=O)[C@@]1(O)[C@H](C)C[C@@H]2[C@H]3CCC4=CC(=O)C=C[C@]4(C)[C@]3(F)[C@@H](O)C[C@@]21C", "target under test": "DIV30", "discrete label": "NO"}
{"compound": "Clc1ccc([C@H](Cn2ccnc2)OCc2csc3c(Cl)cccc23)c(Cl)c1", "target under test": "DIV30", "discrete label": "YES"}
{"compound": "COC(=O)N/N=C/C1=C[N+](=O)c2ccccc2[N+]1=O", "target under test": "DIV30", "discrete label": "NO"}
{"compound": "CN(C)CCOC(=O)[C@@H](c1ccccc1)C1(O)CCCC1", "target under test": "DIV30", "discrete label": "NO"}
{"compound": "CC(C)C1CCC(C(=O)NC(Cc2ccccc2)C(=O)O)CC1 (stereo not given)", "target under test": "DIV30", "discrete label": "NO"}
{"compound": "CC(C)=CCC[C@](C)(O)C1CC=C(C)CC1 (stereo not given in full)", "target under test": "DIV30", "discrete label": "NO"}

Provenance of the data: PubChem BioAssay (NCATS)
